B1: TPR t1 (parent)
chain: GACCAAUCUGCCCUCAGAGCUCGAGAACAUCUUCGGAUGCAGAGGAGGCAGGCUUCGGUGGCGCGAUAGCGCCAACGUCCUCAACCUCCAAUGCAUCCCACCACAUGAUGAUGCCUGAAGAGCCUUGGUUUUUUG

- Variants of: B1
- ASSAY_INFO: polymerase ribozyme fitness, log enrichment relative to wild type (log ratio); higher = more active; in vitro selection for triplet polymerase activity
Task for the reader: assign each of the following variants its reported polymerase ribozyme fitness (log ratio).

Enquiry: Need polymerase ribozyme fitness (log ratio), item G52U G57U G61U A111U
Return: -6.65

Enquiry: Need polymerase ribozyme fitness (log ratio), item G35A G48C C123G
Return: -2.75

Enquiry: Need polymerase ribozyme fitness (log ratio), item G42A U78G U87C C114U
Return: -2.18

Enquiry: Need polymerase ribozyme fitness (log ratio), item G61U A66C
Return: -3.18

Enquiry: Need polymerase ribozyme fitness (log ratio), item C49A C64U U129C U133C
Return: -0.175

Enquiry: Need polymerase ribozyme fitness (log ratio), item U7G A37C A95C
Return: 0.483

Enquiry: Need polymerase ribozyme fitness (log ratio), item C114G C115U
Return: -4.37

Enquiry: Need polymerase ribozyme fitness (log ratio), item C22A C49U C73G C124G
Return: -4.49

Enquiry: Need polymerase ribozyme fitness (log ratio), item G47U C98U U112A
Return: -3.7

Enquiry: Need polymerase ribozyme fitness (log ratio), item U109G G110A
Return: -3.89

Enquiry: Need polymerase ribozyme fitness (log ratio), item U33A G44A G51A G63A A66G A74U A111U
Return: -7.25
